Tested on: FaDu
Test: cells
Assay type: functional, cell-based
Details: Homo sapiens
Description: Antiproliferative activity against human FaDu cells assessed as inhibition of cell growth by MTT assay
pIC50: −log10 of the molar value.
Reported pIC50 values for a set of compounds
observation_type: pIC50

[
  {
    "structure_smiles_string": "C[C@]1(c2nc3c(C(N)=O)cccc3[nH]2)CCCN1",
    "experimental_target": "FaDu",
    "observation_type": "pIC50",
    "measured_result": "< 5.00"
  },
  {
    "structure_smiles_string": "NC(=O)c1cccc2[nH]c(-c3ccc(NCc4ccc(C(=O)Nc5ccccc5N)cc4)cc3)nc12",
    "experimental_target": "FaDu",
    "observation_type": "pIC50",
    "measured_result": "< 5.00"
  }
]

----------
Target: Histone deacetylase 2 (Homo sapiens)
Sequence (Q92769 whole entry): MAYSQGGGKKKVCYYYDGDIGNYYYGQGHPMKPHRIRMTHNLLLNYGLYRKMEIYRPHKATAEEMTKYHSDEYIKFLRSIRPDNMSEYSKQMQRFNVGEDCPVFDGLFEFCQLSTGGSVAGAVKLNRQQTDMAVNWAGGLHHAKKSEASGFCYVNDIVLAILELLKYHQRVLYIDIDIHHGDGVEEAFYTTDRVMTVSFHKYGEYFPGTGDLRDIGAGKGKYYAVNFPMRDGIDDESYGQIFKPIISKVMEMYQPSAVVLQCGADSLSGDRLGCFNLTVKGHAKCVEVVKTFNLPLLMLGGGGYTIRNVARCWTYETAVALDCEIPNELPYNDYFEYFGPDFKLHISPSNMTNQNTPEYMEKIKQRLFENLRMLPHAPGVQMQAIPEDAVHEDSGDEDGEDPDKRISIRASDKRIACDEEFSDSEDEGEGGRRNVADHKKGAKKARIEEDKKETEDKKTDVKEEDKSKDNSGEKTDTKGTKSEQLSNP
pIC50: −log10 of the molar value.

[
  {
    "structure_smiles_string": "NC(=O)c1cccc2[nH]c(-c3ccc(NCc4ccc(C(=O)Nc5ccccc5N)cc4)cc3)nc12",
    "experimental_target": "Histone deacetylase 2 (Homo sapiens)",
    "pIC50": 6.83
  }
]

----------
Tested on: MDA-MB-231
Assay: Antiproliferative activity against human MDA-MB-231 cells assessed as inhibition of cell growth by MTT assay
Format: functional, cell-based
pIC50: −log10 of the molar value.

[
  {
    "structure_smiles_string": "C[C@]1(c2nc3c(C(N)=O)cccc3[nH]2)CCCN1",
    "pIC50": "< 5.00"
  },
  {
    "structure_smiles_string": "NC(=O)c1cccc2[nH]c(-c3ccc(NCc4ccc(C(=O)Nc5ccccc5N)cc4)cc3)nc12",
    "pIC50": "< 5.00"
  }
]
